- Test system: MCF7
- EXPERIMENT_DESCRIPTION: Antiangiogenic activity in human MCF7 cells assessed as downregulation of AKT phosphorylation at Ser473 at 4 uM after 24 hrs by Western blotting analysis
- Assay type: functional, cell-based
Calls of active or inactive are those of the source. No cut-off for these calls is given here.
RECORDED_METRIC: Activity

COc1cc([C@@H]2c3cc4c(cc3[C@@H](NC(=O)CCCCCOc3ccc5nc(C)n(-c6ccc([N+](=O)[O-])cc6)c(=O)c5c3)[C@H]3COC(=O)[C@H]23)OCO4)cc(OC)c1OC: Active
COc1cc([C@@H]2c3cc4c(cc3[C@@H](NC(=O)CCCCCOc3ccc5nc(C)n(-c6ccc(Cl)c(Cl)c6)c(=O)c5c3)[C@H]3COC(=O)[C@H]23)OCO4)cc(OC)c1OC: Active
COc1cc([C@@H]2c3cc4c(cc3[C@@H](NC(=O)CCCCCOc3ccc5nc(C)n(-c6ccc(F)cc6)c(=O)c5c3)[C@H]3COC(=O)[C@H]23)OCO4)cc(OC)c1OC: Active
COc1ccc(-n2c(C)nc3ccc(OCCCCCC(=O)N[C@@H]4c5cc6c(cc5[C@@H](c5cc(OC)c(OC)c(OC)c5)[C@H]5C(=O)OC[C@@H]54)OCO6)cc3c2=O)cc1: Active

----------
- System: MCF7
- EXPERIMENT_DESCRIPTION: Antiangiogenic activity in human MCF7 cells assessed as upregulation of STAT1 protein expression at 4 uM after 24 hrs by Western blotting analysis
- Type: functional, cell-based
Activity calls are given as the source filed them. The calls are words filed in the database; no cut-off is given here.
RECORDED_METRIC: Activity

COc1ccc(-n2c(C)nc3ccc(OCCCCCC(=O)N[C@@H]4c5cc6c(cc5[C@@H](c5cc(OC)c(OC)c(OC)c5)[C@H]5C(=O)OC[C@@H]54)OCO6)cc3c2=O)cc1: Active
COc1cc([C@@H]2c3cc4c(cc3[C@@H](NC(=O)CCCCCOc3ccc5nc(C)n(-c6ccc(F)cc6)c(=O)c5c3)[C@H]3COC(=O)[C@H]23)OCO4)cc(OC)c1OC: Active
COc1cc([C@@H]2c3cc4c(cc3[C@@H](NC(=O)CCCCCOc3ccc5nc(C)n(-c6ccc(Cl)c(Cl)c6)c(=O)c5c3)[C@H]3COC(=O)[C@H]23)OCO4)cc(OC)c1OC: Active
COc1cc([C@@H]2c3cc4c(cc3[C@@H](NC(=O)CCCCCOc3ccc5nc(C)n(-c6ccc([N+](=O)[O-])cc6)c(=O)c5c3)[C@H]3COC(=O)[C@H]23)OCO4)cc(OC)c1OC: Active

----------
- Tested on: MCF7
- EXPERIMENT_DESCRIPTION: Cell cycle arrest in human MCF7 cells assessed as accumulation at G1 phase at 4 uM after 24 hrs by propidium iodide staining-based flow cytometric analysis (reference value: 77%)
- Assay type: functional
Activity: recorded values
RECORDED_METRIC: Activity (%)

COc1cc(OC)cc(-n2c(C)nc3ccc(OCCCCCC(=O)N[C@@H]4c5cc6c(cc5[C@@H](c5cc(OC)c(OC)c(OC)c5)[C@H]5C(=O)OC[C@@H]54)OCO6)cc3c2=O)c1: 49
COc1cc([C@@H]2c3cc4c(cc3[C@@H](NC(=O)CCCCOc3ccc5nc(C)n(-c6ccc(Cl)c(Cl)c6)c(=O)c5c3)[C@H]3COC(=O)[C@H]23)OCO4)cc(OC)c1OC: 49
COc1cc([C@@H]2c3cc4c(cc3[C@@H](NC(=O)CCCCCOc3ccc5nc(C)n(-c6ccc(Cl)c(Cl)c6)c(=O)c5c3)[C@H]3COC(=O)[C@H]23)OCO4)cc(OC)c1OC: 45
COc1ccc(-n2c(C)nc3ccc(OCCCCC(=O)N[C@@H]4c5cc6c(cc5[C@@H](c5cc(OC)c(OC)c(OC)c5)[C@H]5C(=O)OC[C@@H]54)OCO6)cc3c2=O)cc1: 44
COc1cc([C@@H]2c3cc4c(cc3[C@@H](NC(=O)CCCCCOc3ccc5nc(C)n(-c6cc(OC)c(OC)c(OC)c6)c(=O)c5c3)[C@H]3COC(=O)[C@H]23)OCO4)cc(OC)c1OC: 50
COc1cc([C@@H]2c3cc4c(cc3[C@@H](NC(=O)CCCCOc3ccc5nc(C)n(-c6cc(OC)c(OC)c(OC)c6)c(=O)c5c3)[C@H]3COC(=O)[C@H]23)OCO4)cc(OC)c1OC: 51
COc1cc([C@@H]2c3cc4c(cc3[C@@H](NC(=O)CCCCOc3ccc5nc(C)n(-c6ccc(F)cc6)c(=O)c5c3)[C@H]3COC(=O)[C@H]23)OCO4)cc(OC)c1OC: 49
COc1cc(OC)cc(-n2c(C)nc3ccc(OCCCCC(=O)N[C@@H]4c5cc6c(cc5[C@@H](c5cc(OC)c(OC)c(OC)c5)[C@H]5C(=O)OC[C@@H]54)OCO6)cc3c2=O)c1: 49
COc1cc([C@@H]2c3cc4c(cc3[C@@H](NC(=O)CCCCOc3ccc5nc(C)n(-c6ccc([N+](=O)[O-])cc6)c(=O)c5c3)[C@H]3COC(=O)[C@H]23)OCO4)cc(OC)c1OC: 51
COc1cc([C@@H]2c3cc4c(cc3[C@@H](NC(=O)CCCCCOc3ccc5nc(C)n(-c6ccc([N+](=O)[O-])cc6)c(=O)c5c3)[C@H]3COC(=O)[C@H]23)OCO4)cc(OC)c1OC: 49
COc1ccc(-n2c(C)nc3ccc(OCCCCCC(=O)N[C@@H]4c5cc6c(cc5[C@@H](c5cc(OC)c(OC)c(OC)c5)[C@H]5C(=O)OC[C@@H]54)OCO6)cc3c2=O)cc1: 47
COc1cc([C@@H]2c3cc4c(cc3[C@@H](NC(=O)CCCCCOc3ccc5nc(C)n(-c6ccc(F)cc6)c(=O)c5c3)[C@H]3COC(=O)[C@H]23)OCO4)cc(OC)c1OC: 37
COc1cc([C@@H]2c3cc4c(cc3[C@@H](O[C@@H]3O[C@@H]5CO[C@@H](C)O[C@H]5[C@H](O)[C@H]3O)[C@H]3COC(=O)[C@H]23)OCO4)cc(OC)c1O [ETOPOSIDE]: 18
